// values below are reported kinase still bound, per cent of control
Measured on: RPS6KA4 KD1 (human) (UniProt O75676)
Sequence (O75676 whole entry, looked up): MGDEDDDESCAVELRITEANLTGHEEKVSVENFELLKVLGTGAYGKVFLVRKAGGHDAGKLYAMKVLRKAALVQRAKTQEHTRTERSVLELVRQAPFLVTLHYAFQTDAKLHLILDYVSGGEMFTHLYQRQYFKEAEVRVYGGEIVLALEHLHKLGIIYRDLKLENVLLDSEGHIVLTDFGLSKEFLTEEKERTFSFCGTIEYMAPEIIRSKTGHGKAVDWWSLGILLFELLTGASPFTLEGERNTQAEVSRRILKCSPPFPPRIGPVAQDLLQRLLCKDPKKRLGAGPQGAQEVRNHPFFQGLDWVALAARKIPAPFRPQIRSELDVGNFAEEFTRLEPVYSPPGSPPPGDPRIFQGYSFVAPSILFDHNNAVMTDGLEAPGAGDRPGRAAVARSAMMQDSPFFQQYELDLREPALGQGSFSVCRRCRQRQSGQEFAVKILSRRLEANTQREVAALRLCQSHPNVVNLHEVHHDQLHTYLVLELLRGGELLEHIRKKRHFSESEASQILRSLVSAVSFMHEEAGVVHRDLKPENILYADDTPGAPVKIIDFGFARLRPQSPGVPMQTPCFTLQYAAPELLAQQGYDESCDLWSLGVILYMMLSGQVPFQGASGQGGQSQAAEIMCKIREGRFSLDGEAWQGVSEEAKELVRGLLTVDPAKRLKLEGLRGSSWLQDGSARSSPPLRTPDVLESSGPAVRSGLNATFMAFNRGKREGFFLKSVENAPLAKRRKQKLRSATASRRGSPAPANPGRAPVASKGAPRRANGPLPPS
Experiment summary: KINOMEscan competition binding
Condition parameters: compound 10.0 µM
Outcome measure: kinase still bound, per cent of control (%)

C=CC(=O)Nc1cc(-n2c(=O)ccc3cnc4ccc(-c5cn[nH]c5)cc4c32)ccc1C 100
O=C1NC(=O)/C(=C/c2ccc3nccc(-c4ccncc4)c3c2)S1 79
CCN(CC)CCCCNc1ncc2c(n1)N(C)C(=O)N(c1c(Cl)c(OC)cc(OC)c1Cl)C2 100
CN(C)C/C=C/C(=O)Nc1ccc(C(=O)Nc2cccc(Nc3nccc(-c4cccnc4)n3)c2)cc1 100
N#CCNC(=O)c1ccc(-c2ccnc(Nc3ccc(N4CCOCC4)cc3)n2)cc1 100
COCC(=O)NC/C=C/c1ccc2ncnc(Nc3ccc(Oc4ccc(C)nc4)c(C)c3)c2c1 97
O=C(Nc1cccc(Nc2ncc(Br)c(NCCc3cnc[nH]3)n2)c1)N1CCCC1 2.1
COc1cc2ncn(-c3cc(OCc4ccccc4C(F)(F)F)c(C(N)=O)s3)c2cc1OC 69
CCN(CC)CCCCNc1ncc2cc(-c3cc(OC)cc(OC)c3)c(NC(=O)NC(C)(C)C)nc2n1 100
C[C@@H](Oc1cc(-c2cnn(C3CCNCC3)c2)cnc1N)c1c(Cl)ccc(F)c1Cl 100
Cc1n[nH]c2ccc(-c3cncc(OC[C@@H](N)Cc4c[nH]c5ccccc45)c3)cc12 100
CCN1CCN(C(=O)Cc2ccc(Nc3ncc(F)c(Nc4ccc(C(=O)Nc5ccccc5Cl)cc4)n3)cc2)CC1 100
COc1cc2ncnc(-n3nc(-c4ccccn4)nc3N)c2cc1OC 9.9
O=c1cc(N2CCOCC2)oc2c(-c3cccc4c3sc3ccccc34)cccc12 79
NC(=O)Nc1cc(-c2cccc(F)c2)sc1C(=O)N[C@@H]1CCCNC1 0.2
COc1cc(N2CCN(C)CC2)ccc1Nc1ncc2c(n1)N(C)c1ccccc1C(=O)N2C 100
COc1ccc(N(C(=O)Oc2c(C)cccc2C)c2ccnc(Nc3ccc(N4CCN(C)CC4)cc3)n2)c(OC)c1 100
C=CC(=O)Nc1ccc(CN(C(=O)Nc2c(Cl)c(OC)cc(OC)c2Cl)c2cc(Nc3ccc(N4CCN(C)CC4)cc3)ncn2)cc1 100
CNC(=O)c1cc(Oc2ccc(NC(=O)Nc3ccc(Cl)c(C(F)(F)F)c3)cc2)ccn1 85

###

Measured on: NUAK2 (human) (UniProt Q9H093)
Sequence (Q9H093 whole entry, looked up): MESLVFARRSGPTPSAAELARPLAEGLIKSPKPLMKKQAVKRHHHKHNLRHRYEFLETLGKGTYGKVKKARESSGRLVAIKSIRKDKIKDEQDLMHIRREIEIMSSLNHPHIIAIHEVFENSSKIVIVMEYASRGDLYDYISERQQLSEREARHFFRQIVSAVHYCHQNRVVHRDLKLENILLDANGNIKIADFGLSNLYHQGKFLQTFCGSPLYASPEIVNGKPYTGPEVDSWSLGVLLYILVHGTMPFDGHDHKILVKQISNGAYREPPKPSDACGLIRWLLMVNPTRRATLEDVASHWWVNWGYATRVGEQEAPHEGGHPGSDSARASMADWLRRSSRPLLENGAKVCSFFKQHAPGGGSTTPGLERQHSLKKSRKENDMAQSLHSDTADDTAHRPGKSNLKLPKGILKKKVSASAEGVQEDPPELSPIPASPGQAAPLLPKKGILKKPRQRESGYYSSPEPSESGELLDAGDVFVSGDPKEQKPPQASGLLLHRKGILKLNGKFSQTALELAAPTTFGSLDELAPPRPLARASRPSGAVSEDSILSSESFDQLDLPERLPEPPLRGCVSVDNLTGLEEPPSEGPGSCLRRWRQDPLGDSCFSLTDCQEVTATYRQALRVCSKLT
Experiment summary: KINOMEscan competition binding
Condition parameters: compound 10.0 µM
The label Fulfilled is reserved for kinase still bound, per cent of control strictly under 40%; Not fulfilled covers values equal to or above it.

C=CC(=O)Nc1ccc(CN(C(=O)Nc2c(Cl)c(OC)cc(OC)c2Cl)c2cc(Nc3ccc(N4CCN(C)CC4)cc3)ncn2)cc1 Not fulfilled
CNC(=O)c1cc(Oc2ccc(NC(=O)Nc3ccc(Cl)c(C(F)(F)F)c3)cc2)ccn1 Not fulfilled
CNC(=O)c1ccc(Nc2cc(Nc3ccccc3S(=O)(=O)C(C)C)c3cc[nH]c3n2)nc1 Fulfilled
COc1cc(C(=O)N2CCC(N3CCN(C)CC3)CC2)ccc1Nc1ncc2c(n1)N(C)c1ccccc1C(=O)N2C Not fulfilled
COc1cc2ncn(-c3cc(OCc4ccccc4C(F)(F)F)c(C(N)=O)s3)c2cc1OC Fulfilled
CCN(CC)CCCCNc1ncc2c(n1)N(C)C(=O)N(c1c(Cl)c(OC)cc(OC)c1Cl)C2 Not fulfilled
N#CCNC(=O)c1ccc(-c2ccnc(Nc3ccc(N4CCOCC4)cc3)n2)cc1 Fulfilled
CS(=O)(=O)N1CCN(Cc2cc3nc(-c4cccc5[nH]ncc45)nc(N4CCOCC4)c3s2)CC1 Not fulfilled
COc1ccc(N(C(=O)Oc2c(C)cccc2C)c2ccnc(Nc3ccc(N4CCN(C)CC4)cc3)n2)c(OC)c1 Fulfilled
COCC(=O)NC/C=C/c1ccc2ncnc(Nc3ccc(Oc4ccc(C)nc4)c(C)c3)c2c1 Not fulfilled
C=CC(=O)Nc1cc(-n2c(=O)ccc3cnc4ccc(-c5cn[nH]c5)cc4c32)ccc1C Not fulfilled
NC(=O)Nc1cc(-c2cccc(F)c2)sc1C(=O)N[C@@H]1CCCNC1 Fulfilled
CCN(CC)CCCCNc1ncc2cc(-c3cc(OC)cc(OC)c3)c(NC(=O)NC(C)(C)C)nc2n1 Not fulfilled
O=c1cc(N2CCOCC2)oc2c(-c3cccc4c3sc3ccccc34)cccc12 Not fulfilled
CN(C)C/C=C/C(=O)Nc1ccc(C(=O)Nc2cccc(Nc3nccc(-c4cccnc4)n3)c2)cc1 Fulfilled
O=C1NC(=O)/C(=C/c2ccc3nccc(-c4ccncc4)c3c2)S1 Fulfilled
COc1cc(N2CCN(C)CC2)ccc1Nc1ncc2c(n1)N(C)c1ccccc1C(=O)N2C Fulfilled
C[C@@H](Oc1cc(-c2cnn(C3CCNCC3)c2)cnc1N)c1c(Cl)ccc(F)c1Cl Fulfilled
